- system-under-test: GST-ATAD2 bromodomain / biotinylated acetylated histone H4 peptide (Homo sapiens, UniProt Q6PL18)
- Construct: 981-1108; made in house; host or cells: Escherichia coli BL21 (DE3) pLysS, plasmid pGEX-6P-1
- Sequence (Q6PL18 981-1108): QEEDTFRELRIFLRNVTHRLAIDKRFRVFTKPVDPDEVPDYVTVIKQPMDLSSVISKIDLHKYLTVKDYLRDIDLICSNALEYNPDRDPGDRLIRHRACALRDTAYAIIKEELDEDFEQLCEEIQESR
- protocol-details: ATAD2-histone displacement HTRF assay
- Assay type: binding
- measurement-setup: Ligand efficiency (LE) = 1.4(–log IC50)/N, N = number of non-hydrogen atoms; from HTRF IC50
Binary classification by ATAD2 LE, with 0.2 as an inclusive lower bound for Condition met; all other cases are Condition not met.

{"columns": ["molecule", "label-class"],
 "data": [
  ["CN1C(=O)C(C)(C)c2cc(=O)n(Cc3ccc(Br)cc3)cc21 [Compound 17k]", "Condition met"],
  ["Cn1cc2c(cc1=O)C(C)(C)C(=O)N2Cc1ccccc1 [Compound 14b]", "Condition met"],
  ["CN1C(=O)C(C)(C)c2cc(=O)n(Cc3ccc(C(N)=O)cc3)cc21 [Compound 17h]", "Condition not met"],
  ["CN1C(=O)C(C)(C)c2cc(=O)n(Cc3cccc(C#N)c3)cc21 [Compound 17p]", "Condition not met"],
  ["CN1C(=O)C(C)(C)c2cc(=O)n(Cc3ccccc3)cc21 [Compound 17c]", "Condition met"],
  ["CN1C(=O)C(C)(CC2(C)COC2)c2cc(=O)n(Cc3ccc(Cl)cc3)cc21 (stereo not drawn) [Compound 22e]", "Condition not met"],
  ["CN1C(=O)C(C)(C)c2cc(=O)n(Cc3ccc(C(F)(F)F)cc3)cc21 [Compound 17m]", "Condition met"],
  ["CN1C(=O)C(C)(C)c2cc(=O)n(Cc3ccc(C(=O)O)cc3)cc21 [Compound 17f]", "Condition not met"],
  ["Cn1cc2c(cc1=O)C(C)(C)C(=O)N2CCc1ccccc1 [Compound 14c]", "Condition not met"],
  ["CN1C(=O)C(C)(C)c2cc(=O)n(Cc3ccc(S(C)(=O)=O)cc3)cc21 [Compound 17i]", "Condition not met"]
]}

###

Listing: ATAD2 LE of selected compounds
- system-under-test: GST-ATAD2 bromodomain / biotinylated acetylated histone H4 peptide (Homo sapiens)
- Construct: 981-1108; made in house; host or cells: Escherichia coli BL21 (DE3) pLysS, plasmid pGEX-6P-1
- protocol-details: ATAD2-histone displacement HTRF assay
- Format: binding
- measurement-setup: Ligand efficiency (LE) = 1.4(–log IC50)/N, N = number of non-hydrogen atoms; from HTRF IC50

{"columns": ["compound", "ATAD2 LE"],
 "data": [
  ["COC(=O)c1ccc(Cn2cc3c(cc2=O)C(C)(C)C(=O)N3C)cc1 [Compound 17e]", 0.18],
  ["Cc1nc(CC2(C)C(=O)N(C)c3cn(Cc4ccc(Cl)cc4)c(=O)cc32)cs1 (stereo not drawn) [Compound 22c]", 0.17],
  ["CN1C(=O)C(C)(CC(C)(C)C)c2cc(=O)n(Cc3ccc(Cl)cc3)cc21 (stereo not drawn) [Compound 22d]", 0.18],
  ["CN1C(=O)C(C)(C)c2cc(=O)n(Cc3ccc(Cl)cc3)cc21 [Compound 17j]", 0.24],
  ["Cc1ccc(Cn2cc3c(cc2=O)C(C)(C)C(=O)N3C)cc1 [Compound 17l]", 0.23],
  ["CN1C(=O)C(C)(C)c2cc(=O)n(Cc3ccc(C#N)cc3)cc21 [Compound 17g]", 0.20],
  ["CN1C(=O)C(C)(C)c2cc(=O)n(CCc3ccccc3)cc21 [Compound 17d]", 0.20],
  ["CN1C(=O)C(C)(C)c2cc(=O)n(Cc3ccc(Cl)c(Cl)c3)cc21 [Compound 17n]", 0.21],
  ["CCC1(CC)C(=O)N(C)c2cn(Cc3ccc(Cl)cc3)c(=O)cc21 [Compound 18a]", 0.22]
]}

###

- system-under-test: GST-ATAD2 bromodomain / biotinylated acetylated histone H4 peptide (Homo sapiens, UniProt Q6PL18)
- Construct: 981-1108
- Sequence (Q6PL18 981-1108): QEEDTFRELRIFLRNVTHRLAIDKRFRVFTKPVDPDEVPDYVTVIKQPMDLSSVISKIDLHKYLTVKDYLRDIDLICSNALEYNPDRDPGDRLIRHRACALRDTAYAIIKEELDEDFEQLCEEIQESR
- protocol-details: ATAD2-histone displacement HTRF assay
- measurement-setup: HTRF format assay; highest concentration 1000 μM
- Procedure: Surface plasmon resonance (SPR) was used to assess the direct binding of the fragments and provide Kd values for binding to both ATAD2 and BRD4. […] ITC measurements were carried out at 25°C on a Microcal ITC 200 (Malvern Instruments Ltd, Malvern, UK). […] Data were then analysed using Origin 7.0 (OriginLab Corp., Burlington, NC, USA) and fit with the one-set-of-sites model. […]

{"columns": ["molecule", "relation-qualifier", "IC50 [µM]"],
 "data": [
  ["CN1C(=O)C(C)(C)c2cc(=O)n(Cc3ccc(C(F)(F)F)cc3)cc21 [Compound 17m]", "=", 179],
  ["CN1C(=O)C(C)(CC2(C)COC2)c2cc(=O)n(Cc3ccc(Cl)cc3)cc21 (stereo not shown) [Compound 22e]", "=", 214],
  ["CN1C(=O)C(C)(Cc2ccccn2)c2cc(=O)n(Cc3ccc(Cl)cc3)cc21 (stereo not shown) [Compound 22b]", ">", 1000],
  ["CN1C(=O)C(C)(C)c2cc(=O)n(Cc3ccccc3)cc21 [Compound 17c]", "=", 681]
]}

###

- system-under-test: GST-ATAD2 bromodomain / biotinylated acetylated histone H4 peptide (Homo sapiens, UniProt Q6PL18)
- Construct: 981-1108
- protocol-details: ATAD2-histone displacement HTRF assay
- measurement-setup: HTRF format assay; highest concentration 1000 μM
Quick list: IC50 per entry.

{"columns": ["compound", "IC50"],
 "data": [
  ["Cn1cc2c(cc1=O)C(C)(C)C(=O)N2CCO [Compound 14g]", "> 1000 µM"],
  ["CCCn1cc2c(cc1=O)C(C)(C)C(=O)N2C [Compound 17b]", "> 1000 µM"],
  ["Cn1cc2c(cc1=O)C(C)(C)C(=O)N2Cc1ccccc1 [Compound 14b]", "810 µM"],
  ["CN1C(=O)C(C)(C)c2cc(=O)n(Cc3ccc(C#N)cc3)cc21 [Compound 17g]", "562 µM"],
  ["CN1C(=O)C(C)(CC2CC2)c2cc(=O)n(Cc3ccc(Cl)cc3)cc21 (stereo not shown) [Compound 22f]", "304 µM"],
  ["CCC1(CC)C(=O)N(C)c2cn(Cc3ccc(C(F)(F)F)cc3)c(=O)cc21 [Compound 18b]", "163 µM"],
  ["CN1C(=O)C(C)(C)c2cc(=O)n(Cc3ccccc3C(=O)O)cc21 [Compound 17q]", "> 1000 µM"],
  ["COC(=O)c1ccc(Cn2cc3c(cc2=O)C(C)(C)C(=O)N3C)cc1 [Compound 17e]", "651 µM"],
  ["CCN1C(=O)C(C)(C)c2cc(=O)n(C)cc21 [Compound 14a]", "> 1000 µM"],
  ["CN1C(=O)C(C)(C)c2cc(=O)n(C)cc21 [Compound 17a]", "> 1000 µM"],
  ["CN1C(=O)C(C)(C)c2cc(=O)n(CCc3ccccc3)cc21 [Compound 17d]", "741 µM"],
  ["Cn1cc2c(cc1=O)C(C)(C)C(=O)N2CCc1ccccc1 [Compound 14c]", "868 µM"],
  ["CN1C(=O)C(C)(C)c2cc(=O)n(Cc3ccc(C(N)=O)cc3)cc21 [Compound 17h]", "680 µM"],
  ["CN1C(=O)C(C)(CC(C)(C)C)c2cc(=O)n(Cc3ccc(Cl)cc3)cc21 (stereo not shown) [Compound 22d]", "489 µM"],
  ["Cc1ccc(Cn2cc3c(cc2=O)C(C)(C)C(=O)N3C)cc1 [Compound 17l]", "274 µM"],
  ["CN1C(=O)C(C)(C)c2cc(=O)n(Cc3ccccc3C#N)cc21 [Compound 17o]", "> 1000 µM"],
  ["Cn1cc2c(cc1=O)C(C)(C)C(=O)N2CCN1CCOCC1 [Compound 14e]", "> 1000 µM"],
  ["CN1C(=O)C(C)(C)c2cc(=O)n(Cc3ccc(Cl)cc3)cc21 [Compound 17j]", "190 µM"],
  ["Cc1nc(CC2(C)C(=O)N(C)c3cn(Cc4ccc(Cl)cc4)c(=O)cc32)cs1 (stereo not shown) [Compound 22c]", "352 µM"]
]}

Cited source: paper PMC6102691
